Tested on: Mycobacterium tuberculosis Erdman (autoluminescent)
assay.info: total FIC90 (Loewe) at 90% inhibition, three-drug combination (log2); higher = more antagonistic
particulars: in vitro model: valerate; time point: terminal (~4-5 doublings, model-specific)
quantity: total FIC90
Output: the number by itself.

CC(=O)NC[C@H]1CN(c2ccc(N3CCOCC3)c(F)c2)C(=O)O1 [linezolid] + COc1c(N2C[C@@H]3CCCN[C@@H]3C2)c(F)cc2c(=O)c(C(=O)O)cn(C3CC3)c12 [moxifloxacin] + NC(=O)c1cnccn1 [pyrazinamide] :: 0.56

Next, consider the following compound.
Exercise: # input compound: COc1nc2ccc(Br)cc2cc1[C@@H](c1ccccc1)[C@@](O)(CCN(C)C)c1cccc2ccccc12 [bedaquiline] + O=[N+]([O-])c1cn2c(n1)OC[C@@H](OCc1ccc(OC(F)(F)F)cc1)C2 [pretomanid] + CO[C@H]1/C=C/O[C@@]2(C)Oc3c(C)c(O)c4c(O)c(c(/C=N/N5CCN(C)CC5)c(O)c4c3C2=O)NC(=O)/C(C)=C\C=C\[C@H](C)[C@H](O)[C@@H](C)[C@@H](O)[C@@H](C)[C@H](OC(C)=O)[C@@H]1C [rifampicin] ; wanted: its total FIC90
Key: 0.566

Value source: the supplement of paper PMC8617591
